Reported Soybean plant response rating values for a set of compounds
# Tested on: soybean
# assay: Test B pre/postemergence soybean
# Format: in vivo, Glycine max
# test.parameters: Postemergence, Rate 125 g/ha; scale of 0 to 10 where 0 is no effect and 10 is complete control
quantity.measured: Soybean plant response rating

CC(C)N(C(=O)n1oc(=O)n(C(C)C)c1=O)c1ccc(Cl)cc1 ... 3
CC(C)N(C(=O)n1oc(=O)n(CC2CCCCO2)c1=O)c1ccccc1 (stereo not shown) ... 3
COC(=O)C(CCO)n1c(=O)on(C(=O)N(c2ccc(F)cc2)C(C)C)c1=O (stereo not shown) ... 0
CC[C@H](C)n1c(=O)on(C(=O)N(c2ccc(Cl)cc2)C(C)C)c1=O ... 4
CCCn1c(=O)on(C(=O)N(c2ccc(F)cc2)C(C)C)c1=O ... 3
CC(C)N(C(=O)n1oc(=O)n(CC(F)F)c1=O)c1ccc(F)cc1 ... 4
CCn1c(=O)on(C(=O)N(c2ccccc2)C(C)C)c1=O ... 5
CC(C)N(C(=O)n1oc(=O)n(C[C@H](C)Cl)c1=O)c1ccc(Cl)cc1 ... 3
Cc1ccccc1-n1c(=O)on(C(=O)N(c2ccc(Br)cc2)C(C)C)c1=O ... 1
C#CC=CC(C)(C)n1c(=O)on(C(=O)N(c2ccccc2)C(C)C)c1=O ... 2

====

# Test system: sugar beet
# assay: Test B pre/postemergence sugar beet
# Type: in vivo, Beta vulgaris
# test.parameters: Rate 500 g/ha, Postemergence; scale 0 to 10, 0 no effect, 10 complete control
quantity.measured: Sugarbeets plant response rating

CC(C)N(C(=O)n1oc(=O)n(C(C)(C)C)c1=O)c1ccc(Cl)cc1 ... 2
CCN(CC)C(=O)n1oc(=O)n(Cc2cccs2)c1=O ... 0
C=CCn1c(=O)on(C(=O)N(c2ccc(Cl)cc2)C(C)C)c1=O ... 0
COc1cc(C)cc(C)c1-n1c(=O)on(C(=O)N(c2ccc(F)cc2F)C(C)C)c1=O ... 3
CC(C)N(C(=O)n1oc(=O)n(C(C)C)c1=O)c1ccc(Cl)cc1 ... 5
CCOC(=O)C(C)N(C(=O)n1oc(=O)n(C2CCCCC2)c1=O)c1ccc(F)cc1 (centres unmarked) ... 0
CCCn1c(=O)on(C(=O)N(c2ccc(F)cc2)C(C)C)c1=O ... 6
CCc1cccc(C)c1-n1c(=O)on(C(=O)N(c2ccc(F)cc2)C(C)C)c1=O ... 0

====

Reported Wild oats plant response rating (0 to 10 scale) values for a set of molecules
# Tested on: wild oat
# assay: Test B pre/postemergence wild oat
# Type: in vivo, Avena fatua
# test.parameters: Preemergence, Rate 125 g/ha; 0 is no effect, 10 is complete control
quantity.measured: Wild oats plant response rating (0 to 10 scale)

C=CCn1c(=O)on(C(=O)N(c2ccc(Cl)cc2)C(C)C)c1=O [Compound 105] ... 3
Cc1nn(C)c(Cl)c1-n1c(=O)on(C(=O)N(c2ccc(F)cc2F)C(C)C)c1=O [Compound 96] ... 0
CC(C)N(C(=O)n1oc(=O)n(Cc2ccccc2Cl)c1=O)c1ccc(F)cc1 [Compound 140] ... 0
CC(C)N(C(=O)n1oc(=O)n(C(C)C)c1=O)c1ccc(Cl)cc1 [Compound 114] ... 7
Cc1nn(C)c(Cl)c1-n1c(=O)on(C(=O)N(c2ccccc2)C(C)C)c1=O [Compound 121] ... 0
C=CCn1c(=O)on(C(=O)N(c2ccc(F)cc2F)C(C)C)c1=O [Compound 151] ... 9
